- STUDY SYSTEM: Purine nucleoside phosphorylase (Bos taurus, UniProt P55859)
- TEST PROTOCOL: biochemical
- Description: Inhibitory activity against calf spleen purine nucleoside phosphorylase (PNP) using inosine as substrate at a concentration of 10 uM.
QUANTITY NAME: Ki (nM)
Give just the numeric value; nM need not be written.

- Nc1nc2c(Cc3ccc(OCc4ccccc4)cc3)c[nH]c2c(=O)[nH]1: 37.8
- Nc1nc2c(Cc3ccccc3O)c[nH]c2c(=O)[nH]1: 84
- Nc1nc(O)c2[nH]cc(C3=CCCCC3)c2n1: 862
- Cc1nc2c(O)[nH]c(N)nc-2c1Cc1ccccc1: 10300
- Nc1nc2[nH]c(N)nc2c(=O)[nH]1: 982
- Nc1nc2c(Cc3ccncc3)c[nH]c2c(=O)[nH]1: 25.4

Ki value, target or system Purine nucleoside phosphorylase (Bos taurus, UniProt P55859), for Nc1nc(O)c2nc(N)n(Cc3cccs3)c2n1 : 35.7

Ki value, target or system Purine nucleoside phosphorylase (Bos taurus, UniProt P55859), for Oc1[nH]cnc2c(Cc3ccccc3)cnc1-2 : 18.7

Ki value, target or system Purine nucleoside phosphorylase (Bos taurus, UniProt P55859), for Oc1ncn(Cc2ccccc2)c2ncnc1-2 : 24600

Ki value, target or system Purine nucleoside phosphorylase (Bos taurus, UniProt P55859), for Nc1nc(O)c2[nH]cc(Cc3ccccc3Cl)c2n1 : 65

Ki value, target or system Purine nucleoside phosphorylase (Bos taurus, UniProt P55859), for Nc1nc2c(CC3CCCS3)c[nH]c2c(=O)[nH]1 (centres undefined) : 8.5

Ki value, target or system Purine nucleoside phosphorylase (Bos taurus, UniProt P55859), for Nc1nc2c(Cc3cnccc3Cl)c[nH]c2c(=O)[nH]1 : 66.7

Ki value, target or system Purine nucleoside phosphorylase (Bos taurus, UniProt P55859), for Nc1nc2c(Cc3cccnc3)c[nH]c2c(=O)[nH]1 : 13.5

Ki value, target or system Purine nucleoside phosphorylase (Bos taurus, UniProt P55859), for Nc1nc(O)c2[nH]cc(C3CCCCC3)c2n1 : 335

----------
- STUDY SYSTEM: Purine nucleoside phosphorylase (Bos taurus, UniProt P55859)
- TEST PROTOCOL: biochemical
- Description: Inhibitory activity against calf spleen purine nucleoside phosphorylase (PNP) using 2-amino-6-mercapto-7-methyl purine ribonucleoside (MESG) as substrate.
Threshold check on Ki: strictly below 20 nM is 1.0; on or above 20 nM is 0.0.

• Nc1nc(O)c2[nH]cc(Cc3ccsc3)c2n1 = 1.0
• Nc1nc2c(Cc3ccncc3)c[nH]c2c(=O)[nH]1 = 1.0
• Nc1nc(O)c2[nH]cc(C3=CCCCC3)c2n1 = 0.0
• Nc1nc(O)c2[nH]cc(C3CCCCC3)c2n1 = 0.0
• Nc1nc2[nH]c(N)nc2c(=O)[nH]1 [8-AMINOGUANINE] = 0.0
• Oc1[nH]cnc2c(Cc3ccccc3)cnc1-2 = 1.0
• Nc1nc2c(Cc3ccccc3O)c[nH]c2c(=O)[nH]1 = 0.0

Turning to the following molecule.
In: State whether 20 nM exceeds Ki recorded for CC1CCCC(Cc2c[nH]c3c(=O)[nH]c(N)nc23)C1 (stereo not drawn) .
Out: 1.0

----------
- STUDY SYSTEM: Purine nucleoside phosphorylase (Bos taurus, UniProt P55859)
- Sequence (P55859 whole entry): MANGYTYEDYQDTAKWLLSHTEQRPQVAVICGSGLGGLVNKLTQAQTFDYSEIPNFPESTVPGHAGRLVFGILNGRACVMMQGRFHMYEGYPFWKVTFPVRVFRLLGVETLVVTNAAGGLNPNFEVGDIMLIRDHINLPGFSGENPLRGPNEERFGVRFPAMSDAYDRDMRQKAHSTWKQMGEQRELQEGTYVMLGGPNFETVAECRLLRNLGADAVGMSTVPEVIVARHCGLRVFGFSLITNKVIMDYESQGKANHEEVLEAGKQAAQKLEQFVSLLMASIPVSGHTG
QUANTITY NAME: IC50 (nM)
Give just the numeric value; nM need not be written.

// worked examples, IC50 included
• Cc1nc2c(O)[nH]c(N)nc-2c1Cc1ccccc1 = 20200
• Nc1nc2c(Cc3cnccc3Cl)c[nH]c2c(=O)[nH]1 = 135
• Nc1nc(O)c2[nH]cc(Cc3ccc(O)cc3)c2n1 = 239
• Nc1nc2c(Cc3ccc(OCc4ccccc4)cc3)c[nH]c2c(=O)[nH]1 = 124
• Nc1nc2c(Cc3cccnc3)c[nH]c2c(=O)[nH]1 = 27

IC50 value, target or system Purine nucleoside phosphorylase (Bos taurus, UniProt P55859), for Nc1nc(O)c2[nH]cc(C3=CCCCC3)c2n1 : 1970

IC50 value, target or system Purine nucleoside phosphorylase (Bos taurus, UniProt P55859), for Oc1ncn(Cc2ccccc2)c2ncnc1-2 : 49600

IC50 value, target or system Purine nucleoside phosphorylase (Bos taurus, UniProt P55859), for Nc1nc(O)c2[nH]cc(Cc3ccccc3Cl)c2n1 : 103

IC50 value, target or system Purine nucleoside phosphorylase (Bos taurus, UniProt P55859), for Nc1nc(O)c2[nH]c(N)c(CC3CCCCC3)c2n1 : 1470

IC50 value, target or system Purine nucleoside phosphorylase (Bos taurus, UniProt P55859), for Nc1nc2c(Cc3cccc(Cl)c3)c[nH]c2c(=O)[nH]1 : 25.8

IC50 value, target or system Purine nucleoside phosphorylase (Bos taurus, UniProt P55859), for Nc1nc(O)c2[nH]cc(Oc3ccccc3)c2n1 : 41.5

IC50 value, target or system Purine nucleoside phosphorylase (Bos taurus, UniProt P55859), for Nc1nc(O)c2nc(N)n(Cc3cccs3)c2n1 : 69.4

IC50 value, target or system Purine nucleoside phosphorylase (Bos taurus, UniProt P55859), for Nc1nc2c(Cc3ccc(-c4ccccc4)cc3)c[nH]c2c(=O)[nH]1 : 546

IC50 value, target or system Purine nucleoside phosphorylase (Bos taurus, UniProt P55859), for CC(C)c1ccc(Cc2c[nH]c3c(=O)[nH]c(N)nc23)cc1 : 96.6
